Every entry's value here was drawn from PubChem BioAssay AID1063.

Test: Leishmania major promastigote growth inhibition, primary screen (AID 1063);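 also: promastigotes grown with compound for 44 hours at 28 °C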
Details: Leishmania major promastigotes, resazurin fluorescence viability; at 10 µM; active compounds read high
In all, about 200,000 compounds went through this assay and about 18,000 (9%) were called active. For the sample, actives were picked, then their nearest neighbours and some compounds at random.
Would you kindly list inhibition for each of these molecules?
Answers are plain numbers, in %.

CSc1nc2nc(-c3cccc(C(F)(F)F)c3)ccn2n1 ... -7.55

Please give inhibition for each item listed below.
1. Cc1cc(C)n(-c2nnc(N3CCN(c4ccccc4)CC3)nn2)n1
2. CC(C)=C1SC(N2CCN(c3cccc(C)c3)CC2)=NC1=O

Reply:
1: 10.3; 2: 1.42

Please give inhibition for each item listed below.
1. CCN1C(=O)/C(=C\N2CCN(c3ccccc3)CC2)SC1=S
2. O=C(CCn1ccc([N+](=O)[O-])n1)Nc1nccs1

Reply:
1. 0.18
2. 11.6
